TEST_TARGET: ZFPAp3 six-finger zinc finger protein (Sp1C framework) (artificial)
Sequence (chain, as listed by the source): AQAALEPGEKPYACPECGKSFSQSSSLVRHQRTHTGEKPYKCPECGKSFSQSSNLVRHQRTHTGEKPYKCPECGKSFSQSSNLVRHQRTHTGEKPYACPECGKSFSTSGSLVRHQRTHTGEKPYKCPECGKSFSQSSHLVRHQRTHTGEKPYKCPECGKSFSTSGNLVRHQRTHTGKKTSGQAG
EXPERIMENT_NOTES: ELISA, 31.0 ug/ml protein, non-target
APPLIED_CONDITIONS: tags: MBP fusion (pMAL-C2), E. coli; label: 5'-biotin; hairpin
Here, each record is paired with measured binding signal data.
All answers are understood in fold over no oligo, so give the number only.

Given GGGGCAGCCCCCACGGCGCCGGGTTTTCCCGGCGCCGTGGGGGCTGCCCC (dsDNA) [hHD-II] , state its recorded binding signal.
2

Given GGTTCTACCCCTCCCACCGCGGGTTTTCCCGCGGTGGGAGGGGTAGAACC (dsDNA) [NRI-1] , state its recorded binding signal.
8

Given GGGGCCCCGCCTCCGCCGGCGGGTTTTCCCGCCGGCGGAGGCGGGGCCCC (dsDNA) [hHD-I] , state its recorded binding signal.
2

Given GGCTCTGCTCATCCCACTACGGGTTTTCCCGTAGTGGGATGAGCAGAGCC (dsDNA) [c5p3-g] , state its recorded binding signal.
2

Given GGGACACCCCCAACCCCGCCGGGTTTTCCCGGCGGGGTTGGGGGTGTCCC (dsDNA) [c5c1-g] , state its recorded binding signal.
2

Given GGCACTGCGGCTCCGGCCCCGGGTTTTCCCGGGGCCGGAGCCGCAGTGCC (dsDNA) [e2c-g] , state its recorded binding signal.
3

Given GGACCCACCGCGTCCCCTCCGGGTTTTCCCGGAGGGGACGCGGTGGGTCC (dsDNA) [B3c2] , state its recorded binding signal.
3

Given GGTGCGGCGACTGCAGCAGCGGGTTTTCCCGCTGCTGCAGTCGCCGCACC (dsDNA) [NRI-2] , state its recorded binding signal.
4
